Origin of measurements: ChEMBL document CHEMBL5137112

# Study System: Serotonin 2 receptors; 5-HT2a & 5-HT2c (Homo sapiens) (UniProt P28223+P28335)
# Sequence (P28223 whole entry, looked up): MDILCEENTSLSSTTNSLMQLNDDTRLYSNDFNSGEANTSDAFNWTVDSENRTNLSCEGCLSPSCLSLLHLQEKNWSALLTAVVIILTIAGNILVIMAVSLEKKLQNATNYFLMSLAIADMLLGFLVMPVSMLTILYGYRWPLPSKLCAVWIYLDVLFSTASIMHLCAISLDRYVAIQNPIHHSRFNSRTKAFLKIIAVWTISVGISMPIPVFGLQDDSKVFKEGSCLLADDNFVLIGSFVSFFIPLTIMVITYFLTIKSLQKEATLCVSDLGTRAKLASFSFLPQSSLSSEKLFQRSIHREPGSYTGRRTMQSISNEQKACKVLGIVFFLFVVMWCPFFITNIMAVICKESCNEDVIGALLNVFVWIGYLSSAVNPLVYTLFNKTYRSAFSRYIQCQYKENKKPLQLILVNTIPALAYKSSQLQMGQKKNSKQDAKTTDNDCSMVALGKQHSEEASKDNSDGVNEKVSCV
# Sequence (P28335 whole entry, looked up): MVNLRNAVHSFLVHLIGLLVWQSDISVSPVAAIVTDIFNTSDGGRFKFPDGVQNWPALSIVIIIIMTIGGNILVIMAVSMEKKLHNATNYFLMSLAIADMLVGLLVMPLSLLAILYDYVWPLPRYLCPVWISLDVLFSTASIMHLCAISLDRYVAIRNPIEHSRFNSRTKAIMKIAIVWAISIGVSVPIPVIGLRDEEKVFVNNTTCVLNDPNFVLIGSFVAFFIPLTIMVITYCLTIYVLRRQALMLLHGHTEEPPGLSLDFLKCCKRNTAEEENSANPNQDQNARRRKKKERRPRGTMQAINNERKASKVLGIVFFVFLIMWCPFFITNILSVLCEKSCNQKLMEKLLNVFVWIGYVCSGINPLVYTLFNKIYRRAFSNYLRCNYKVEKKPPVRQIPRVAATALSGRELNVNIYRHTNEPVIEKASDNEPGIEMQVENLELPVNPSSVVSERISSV
# Assay Name: Selectivity ratio of Ki for 5-HT2A receptor (unknown origin) to Ki for 5-HT2C receptor (unknown origin)
# Type: protein assay
Please provide measured Ratio Ki for the entries that follow.
One number for each entry.

Answered cases to consult:
[[record]]
compound = "COc1cc2c(cc1OC)-c1c(OC)c(OCC3CC3)cc3c1[C@H](C2)N(C)CC3"
observed_result = 2.3

[[record]]
compound = "COc1cc2c(cc1OCc1ccccc1)C[C@H]1c3c(cc(OC)c(OC)c3-2)CCN1C"
observed_result = 1.2

[[record]]
compound = "COc1cc2c(cc1OC)-c1c(OC)c(OC)cc3c1[C@H](C2)N(C)CC3 [GLAUCINE]"
observed_result = 2.9


Give measured Ratio Ki for every item shown.
1. COc1cc2c(cc1OC)-c1c(OC)c(OC3CCCCC3)cc3c1[C@H](C2)N(C)CC3
2. COc1cc2c(cc1OC1CCCCC1)C[C@H]1c3c(cc(OC)c(OC)c3-2)CCN1C
3. CCCCCOc1cc2c3c(c1OC)-c1cc(OC)c(OC)cc1C[C@@H]3N(C)CC2
4. COc1cc2c(cc1OC)-c1c(OC)c(OCc3ccccc3)cc3c1[C@H](C2)N(C)CC3
5. CCCC(C)Oc1cc2c(cc1OC)-c1c(OC)c(OC)cc3c1[C@H](C2)N(C)CC3 (some centres undefined)
6. CCC(C)Oc1cc2c(cc1OC)-c1c(OC)c(OC)cc3c1[C@H](C2)N(C)CC3 (some centres undefined)
7. C=CCOc1cc2c3c(c1OC)-c1cc(OC)c(OC)cc1C[C@@H]3N(C)CC2
8. COc1cc2c(cc1OC)-c1c(OC)c(OCc3ccc(Br)cc3)cc3c1[C@H](C2)N(C)CC3

Reply:
1: 4.7; 2: 0.9; 3: 3.5; 4: 5.5; 5: 1.1; 6: 1.6; 7: 2; 8: 0.9
